In this section we review reported EC50 values for a set of molecules.
# systemTested: Glycogen synthase kinase-3 beta (Homo sapiens)
# testName: concentration-response blocking of human GSK3B – biochemical, luminescence, cell-free homogeneous, retest, dose response (AID 434954)

O=Cc1cc(CCC(=O)O)ccc1O [SMR000639316] = > 300 µM
O=C(COc1ccccc1[N+](=O)[O-])NN=C/C=C/c1ccco1 = > 300 µM
CCN1/C(=C/C(C)=C/c2sc3ccccc3[n+]2CC)Sc2ccccc21 [SMR000354813] = 24.7 µM
COc1ccc2nc(NC(=O)CCNC(=O)c3ccccc3Cl)sc2c1 = > 300 µM
Cc1ccc(Cc2cnc(NC(=O)C3CCCO3)s2)cc1 (stereo not drawn) [SMR000141246] = 17.4 µM
O=C(/[O+]=N/[CH-]c1ccc(N2CCCCC2)c([N+](=O)[O-])c1)c1c(F)cccc1F [MLS000326582] = > 300 µM

Prompt: Return EC50 measured with Glycogen synthase kinase-3 beta (Homo sapiens) given this molecule: O=C(OCCN1CCOCC1)c1ccc(O)cc1 [SMR000513589]
Completion: > 300 µM

Prompt: Return EC50 measured with Glycogen synthase kinase-3 beta (Homo sapiens) given this molecule: COc1cccc(Nc2ncc(C#N)c(N)n2)c1 [MLS000858965]
Completion: 14.3 µM

Prompt: Return EC50 measured with Glycogen synthase kinase-3 beta (Homo sapiens) given this molecule: O=C1N=c2cc(Cl)ccc2=C1NNc1ccc(C(=O)O)cc1 [MLS000759696]
Completion: 19.1 µM

Prompt: Return EC50 measured with Glycogen synthase kinase-3 beta (Homo sapiens) given this molecule: CC(C(=O)NC1CCCCCC1)n1cc([N+](=O)[O-])cn1 (stereo not drawn)
Completion: > 300 µM

Prompt: Return EC50 measured with Glycogen synthase kinase-3 beta (Homo sapiens) given this molecule: COc1ccc2c(CC(=O)Nc3ncc(C)s3)coc2c1
Completion: > 300 µM

Prompt: Return EC50 measured with Glycogen synthase kinase-3 beta (Homo sapiens) given this molecule: OC(COc1ccc(OCC(O)CN2CCN(Cc3ccccc3)CC2)cc1)CN1CCN(Cc2ccccc2)CC1 (stereo not drawn) [SMR000473226]
Completion: > 300 µM

Prompt: Return EC50 measured with Glycogen synthase kinase-3 beta (Homo sapiens) given this molecule: COC(=O)c1ccc(O)cc1
Completion: > 300 µM

Prompt: Return EC50 measured with Glycogen synthase kinase-3 beta (Homo sapiens) given this molecule: CCOC(=O)c1sc(=S)n(-c2ccccc2OC)c1N
Completion: > 300 µM

Prompt: Return EC50 measured with Glycogen synthase kinase-3 beta (Homo sapiens) given this molecule: Cc1ccc(NC2=CC(=O)CC(C)(C)C2)cc1F [MLS001198284]
Completion: > 300 µM

Prompt: Return EC50 measured with Glycogen synthase kinase-3 beta (Homo sapiens) given this molecule: N#Cc1c(O)nc(SCC(=O)Nc2nnc(C(F)(F)F)s2)nc1-c1ccccc1
Completion: > 300 µM

----------
# systemTested: Glycogen synthase kinase-3 beta (Homo sapiens, UniProt P49841)
# Sequence (P49841 whole entry): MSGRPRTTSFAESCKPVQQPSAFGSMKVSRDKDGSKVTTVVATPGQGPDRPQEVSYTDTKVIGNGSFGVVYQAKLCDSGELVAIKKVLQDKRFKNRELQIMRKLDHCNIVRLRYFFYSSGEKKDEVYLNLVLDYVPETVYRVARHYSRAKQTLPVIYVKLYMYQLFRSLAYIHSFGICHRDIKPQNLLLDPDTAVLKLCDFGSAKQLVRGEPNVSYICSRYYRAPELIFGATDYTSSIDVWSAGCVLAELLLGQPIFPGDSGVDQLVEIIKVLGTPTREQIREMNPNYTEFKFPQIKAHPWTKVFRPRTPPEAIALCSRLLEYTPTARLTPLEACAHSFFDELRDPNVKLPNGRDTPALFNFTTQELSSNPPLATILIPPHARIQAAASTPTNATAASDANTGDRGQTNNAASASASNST
# testName: concentration-response blocking of human GSK3B – biochemical, luminescence, cell-free homogeneous, retest, dose response (AID 434954)
measuredAttribute: EC50 (µM)
Express it in µM; write the number only.

Field: example entries. Status: answers known.
COc1ccccc1C=NNC(=O)c1nnn(-c2nonc2N)c1CN(C)c1ccccc1 = 4.14
COc1ccc2occ(C(=O)c3ccc(N)cc3)c2c1 = 14.7
COc1ccc(OC)c(Nc2oc3cc(=O)ccc-3cc2C(N)=O)c1 = 11.9

Let us move to another entry and its EC50.
Prompt: Fill blank: measured EC50 of the compound COc1cc2[nH]c(=O)n3nc(-c4ccccc4)nc3c2cc1OC is ____.
Completion: 5.34

----------
# systemTested: Glycogen synthase kinase-3 beta (Homo sapiens, UniProt P49841)
# testName: concentration-response blocking of human GSK3B – biochemical, luminescence, cell-free homogeneous, retest, dose response (AID 434954)
In this section we review reported EC50 values for a set of compounds.

Prompt: Fill blank: measured EC50 of the compound CCOc1cc(C2c3c(C)n[nH]c3C(=O)N2c2ccc(C)cc2)ccc1O (stereo not given) [SMR000035605] is ____.
Completion: > 300 µM

Prompt: Fill blank: measured EC50 of the compound Cc1ccc(NC(=O)NCCCN2CCCC2=O)cc1C [SMR000677961] is ____.
Completion: > 300 µM

Prompt: Fill blank: measured EC50 of the compound O=C1Nc2cc(C(=O)N3CCC(N4CCCCC4)CC3)ccc2S/C1=C\c1ccccc1 [SMR000635251] is ____.
Completion: 16.9 µM

----------
# systemTested: Glycogen synthase kinase-3 beta (Homo sapiens)
# testName: concentration-response blocking of human GSK3B – biochemical, luminescence, cell-free homogeneous, retest, dose response (AID 434954)
pEC50: −log10 of the molar value.
Decide using pEC50: a value greater than or equal to 5 is met, a smaller one is not met.

c1ccc(-c2nc(NCc3cccnc3)c3ccccc3n2)cc1 = not met
CN(Cc1nc2c(s1)CCCC2)C(=O)CCc1nnc(-c2ccc3c(c2)OCO3)o1 = not met
COCCCn1c(-c2ccc(OC)cc2)nc2nc3ccccc3nc21 = not met
CCc1ccc(S(=O)(=O)Nc2ccc(O)c3c(=O)cc(-c4ccccc4Cl)oc23)cc1 = not met
O=NCc1ccc(N2CCCC2)c([N+](=O)[O-])c1 = met
COc1ccc(-c2nc(-c3ccccc3)nc(Cl)c2C#N)cc1 = not met
COc1ccc(OC)c(Nc2nc(NCCCN(C)C)nc(N)c2[N+](=O)[O-])c1 = met
CC(C)Nc1nc(-c2ccncc2)nc(-c2ccccc2)c1C#N = not met

Shift focus to the following entry.
Prompt: Kindly determine if pEC50 recorded for CN(C)CCc1cc2c(c3c1ccc1ccccc13)OCO2 is above or exactly 5.
Completion: not met

----------
In this section we review reported pEC50 values for a set of compounds.
# systemTested: Glycogen synthase kinase-3 beta (Homo sapiens, UniProt P49841)
# testName: concentration-response blocking of human GSK3B – biochemical, luminescence, cell-free homogeneous, retest, dose response (AID 434954)
pEC50: −log10 of the molar value.

CCc1c(C)c2ccc(O)c(CN(C)C)c2oc1=O = < 3.52

Prompt: Fill blank: measured pEC50 of the compound CCOC(=O)c1nnn(-c2nonc2N)c1-c1ccc(C)cc1 is ____.
Completion: 4.29

Prompt: Fill blank: measured pEC50 of the compound CCOC(=O)c1nnn(-c2nonc2N)c1CN(CC)CC is ____.
Completion: < 3.52

Prompt: Fill blank: measured pEC50 of the compound COC(=O)c1cc(C(=O)Nc2cc(C)ccn2)cc([N+](=O)[O-])c1 is ____.
Completion: < 3.52

Prompt: Fill blank: measured pEC50 of the compound CCOC(=O)COc1ccc(C(=O)c2ccccc2)c(O)c1 is ____.
Completion: < 3.52

Prompt: Fill blank: measured pEC50 of the compound NC(=O)COC(=O)c1ccc(-c2ccc(O)cc2)cc1 is ____.
Completion: < 3.52

Prompt: Fill blank: measured pEC50 of the compound COc1ccc(N2CCN(CCNC(=O)c3nnc(Cc4c(F)cccc4Cl)o3)CC2)cc1 is ____.
Completion: < 3.52

Prompt: Fill blank: measured pEC50 of the compound CS(=O)(=O)c1ccc2nc(NC(=O)CN3CCN(Cc4ccccc4)CC3)sc2c1 is ____.
Completion: < 3.52

Prompt: Fill blank: measured pEC50 of the compound O=C1C[C@@H](c2ccc(O)c(O)c2)Oc2cc(O)cc(O)c21 is ____.
Completion: < 3.52

Prompt: Fill blank: measured pEC50 of the compound CCOC(=O)CC(=O)CSc1ccc2nnc(-c3cccc(F)c3)n2n1 is ____.
Completion: < 3.52

Prompt: Fill blank: measured pEC50 of the compound CCn1nc(NC(=O)C2CCCO2)c2cc3cccc(C)c3nc21 (configuration not stated) is ____.
Completion: < 3.52

----------
In this section we review reported pEC50 values for a set of molecules.
# systemTested: Glycogen synthase kinase-3 beta (Homo sapiens)
# testName: concentration-response blocking of human GSK3B – biochemical, luminescence, cell-free homogeneous, retest, dose response (AID 434954)
Scale note: pEC50 = -log10(concentration in M).

Field: example entries. Status: answers known.
C=CCNc1nc(N)c([N+](=O)[O-])c(NC2CCCCC2)n1 = 5.26
CCOC(=O)CSc1ccc2nnc(-c3cccs3)n2n1 = 5.39
CN(c1ncnc(N)c1[N+](=O)[O-])C1CCS(=O)(=O)C1 (stereo not given) = 4.55

Let us move to another entry and its pEC50.
Prompt: Return pEC50 measured with Glycogen synthase kinase-3 beta (Homo sapiens) given this molecule: CN(C)CCCNc1ccc(-c2cc(Nc3cccc(Cl)c3)ncn2)cn1
Completion: 4.91

----------
# systemTested: UniProt:P49841
# testName: concentration-response blocking of human GSK3B – biochemical, luminescence, cell-free homogeneous, retest, dose response (AID 434954)
pEC50: −log10 of the molar value.
measuredAttribute: pEC50

Field: example entries. Status: answers known.
Cn1cc([CH+][N-]NC(=O)COc2ccccc2[N+](=O)[O-])c2ccccc21 = < 3.52
CCCCn1nc(NC(=O)CCC)c2cc3cc(OC)ccc3nc21 [MLS001214871] = < 3.52
O=C(O)Cn1c(=O)c2c3c(sc2n(Cc2ccccc2F)c1=O)CCCC3 [SMR000544593] = < 3.52
COCC(C)n1c(C)cc(C(=O)COC(=O)c2ccc3c(c2)NC(=O)CS3)c1C (stereo not given) = < 3.52
Cc1ccc(NC2=CC(=O)CC(C)(C)C2)cc1C = < 3.52

Prompt: Fill blank: measured pEC50 of the compound CCOc1ccc(N2C(=O)C(=Nc3ccccc3O)C(Cl)C2=O)cc1 (stereo not given) [SMR000124402] is ____.
Completion: < 3.52

Prompt: Fill blank: measured pEC50 of the compound O=C(COc1ccc(Cl)cc1)Nc1ncc([N+](=O)[O-])s1 is ____.
Completion: 4.58

Prompt: Fill blank: measured pEC50 of the compound COC(=O)C(C)Oc1cc(OC(C)C(=O)OC)c2c(-c3ccccc3)cc(=O)oc2c1 (stereo not given) is ____.
Completion: < 3.52

Prompt: Fill blank: measured pEC50 of the compound COc1ccc(CN(CC(=O)NCc2ccco2)C(=O)CCC(=O)Nc2ccccn2)cc1 is ____.
Completion: < 3.52

Prompt: Fill blank: measured pEC50 of the compound Cc1[nH][nH]c(=O)c1N=Nc1ccccc1C#N is ____.
Completion: 4.80

# credit: BindingDB's records for doi:10.7270/Q2TX3CTT
